- System: NCI-H1299 (Non-Small Cell Lung Carcinoma)
- test: combination Emax (second highest fraction inhibited in the dose matrix, 72 h); higher = more inhibition; extreme values may be limits of the assay
The following compounds are shown together with reported combination Emax values.

>  <compound>
CC1(C)CCC(CN2CCN(c3ccc(C(=O)NS(=O)(=O)c4ccc(NCC5CCOCC5)c([N+](=O)[O-])c4)c(Oc4cnc5[nH]ccc5c4)c3)CC2)=C(c2ccc(Cl)cc2)C1 [Venetoclax] + Cc1cc2ncnn2cc1Nc1ncc2c(n1)n(C1CCOCC1)c(=O)n2C [AZD7648] (first compound max 1 µM, 7x7, partner max 10 µM)

>  <reported property>
combination Emax

>  <obs value>
0.224

$$$$
>  <compound>
Cn1cnc2c(F)c(Nc3ccc(Br)cc3Cl)c(C(=O)NOCCO)cc21 [Selumetinib] + CC(C)n1c(=O)n(C)c2cnc3cc(F)c(-c4ccc(OCCCN5CCCCC5)nc4)cc3c21 [AZD1390] (first compound max 10 µM, 7x7, partner max 0.3 µM)

>  <reported property>
combination Emax

>  <obs value>
0.23

$$$$

Kindly consider the entry below.
## Task Return combination Emax measured with NCI-H1299 (Non-Small Cell Lung Carcinoma) given this compound: CC(=O)c1c(C)c2cnc(Nc3ccc(N4CCNCC4)cn3)nc2n(C2CCCC2)c1=O [Palbociclib] + Cc1c2c(nn1C)CSCc1cc(n(C)n1)CSc1cc(c3ccccc3c1)OCCCc1c(C(=O)O)n(C)c3c-2c(Cl)ccc13 [AZD5991] (first compound max 10 µM, 7x7, partner max 1 µM)
## Result 0.478

====

The following compounds are shown together with reported Bliss excess values.
- Tested on: TE-5 (Esophageal Squamous Cell Carcinoma);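 note: after 72 h of two-drug dosing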
- test: Bliss excess, mean over the matrix (fraction); higher = more synergy

Consider the worked cases shown below.
>  <compound>
COc1cccc(OCCCN)c1-c1cc(Nc2cnc(C#N)cn2)n[nH]1 [Prexasertib] + Cc1cc2ncnn2cc1Nc1ncc2c(n1)n(C1CCOCC1)c(=O)n2C [AZD7648] (first compound max 1 µM, 7x7, partner max 10 µM)

>  <assayed target>
TE-5 (Esophageal Squamous Cell Carcinoma);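 note: after 72 h of two-drug dosing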

>  <Bliss excess>
0.0129

$$$$
>  <compound>
CC(=O)c1c(C)c2cnc(Nc3ccc(N4CCNCC4)cn3)nc2n(C2CCCC2)c1=O [Palbociclib] + Cn1cnc2c(F)c(Nc3ccc(Br)cc3Cl)c(C(=O)NOCCO)cc21 [Selumetinib] (first compound max 10 µM, 7x7, partner max 10 µM)

>  <assayed target>
TE-5 (Esophageal Squamous Cell Carcinoma);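 note: after 72 h of two-drug dosing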

>  <Bliss excess>
-0.0511

$$$$
>  <compound>
Cc1c2c(nn1C)CSCc1cc(n(C)n1)CSc1cc(c3ccccc3c1)OCCCc1c(C(=O)O)n(C)c3c-2c(Cl)ccc13 [AZD5991] + CS(=O)(=O)CCNCc1ccc(-c2ccc3ncnc(Nc4ccc(OCc5cccc(F)c5)c(Cl)c4)c3c2)o1 [Lapatinib] (first compound max 1 µM, 7x7, partner max 10 µM)

>  <assayed target>
TE-5 (Esophageal Squamous Cell Carcinoma);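 note: after 72 h of two-drug dosing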

>  <Bliss excess>
0.0198

$$$$
>  <compound>
N#Cc1cnc(Nc2cc(NC[C@H]3CNCCO3)c(C(F)(F)F)cn2)cn1 [SRA737] + Nc1ccn([C@@H]2O[C@H](CO)[C@@H](O)C2(F)F)c(=O)n1 [Gemcitabine] (first compound max 10 µM, 7x7, partner max 0.3 µM)

>  <assayed target>
TE-5 (Esophageal Squamous Cell Carcinoma);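 note: after 72 h of two-drug dosing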

>  <Bliss excess>
-0.0151

$$$$
>  <compound>
CC1(C)CCC(CN2CCN(c3ccc(C(=O)NS(=O)(=O)c4ccc(NCC5CCOCC5)c([N+](=O)[O-])c4)c(Oc4cnc5[nH]ccc5c4)c3)CC2)=C(c2ccc(Cl)cc2)C1 [Venetoclax] + CCN(CCO)CCCOc1ccc2c(Nc3cc(CC(=O)Nc4cccc(F)c4)[nH]n3)ncnc2c1 [AZD2811] (first compound max 1 µM, 7x7, partner max 1 µM)

>  <assayed target>
TE-5 (Esophageal Squamous Cell Carcinoma);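 note: after 72 h of two-drug dosing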

>  <Bliss excess>
-0.0318

$$$$
>  <compound>
C[C@@H]1COCCN1c1cc(C2([S@](C)(=N)=O)CC2)nc(-c2ccnc3[nH]ccc23)n1 [AZD6738] + C1CC(C1)(C(=O)[O-])C(=O)[O-].N.N.[Pt+2] [Carboplatin] (first compound max 10 µM, 7x7, partner max 10 µM)

>  <assayed target>
TE-5 (Esophageal Squamous Cell Carcinoma);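 note: after 72 h of two-drug dosing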

>  <Bliss excess>
-0.0163

$$$$

Kindly consider the entry below.
## Task Could you share which Bliss excess value was measured for CC(=O)Nc1cccc(-n2c(=O)n(C3CC3)c(=O)c3c(Nc4ccc(I)cc4F)n(C)c(=O)c(C)c32)c1 [Trametinib] + Cc1nc(-c2cn3c(n2)-c2ccc(-c4cnn(C(C)(C)C(N)=O)c4)cc2OCC3)n(C(C)C)n1 [Taselisib] (first compound max 1 µM, 7x7, partner max 10 µM) ?
## Result 0.101

====

- System: DOV13 (Ovarian Carcinoma)
- test: combination Emax (second highest fraction inhibited in the dose matrix, 72 h); higher = more inhibition; extreme values may be limits of the assay
combination Emax below 0.8 gives not met; combination Emax at or above it gives met.

Past entries and their recorded results:
>  <compound>
C[C@@H](Oc1cc(-c2cnn(C3CCNCC3)c2)cnc1N)c1c(Cl)ccc(F)c1Cl [Crizotinib] + CC1=C(C(=CC=C1)Cl)NC(=O)C2=CN=C(S2)NC3=CC(=NC(=N3)C)N4CCN(CC4)CCO [Dasatinib] (first compound max 10 µM, 7x7, partner max 2 µM)

>  <answer label>
met

$$$$
>  <compound>
C=CCn1c(=O)c2cnc(Nc3ccc(N4CCN(C)CC4)cc3)nc2n1-c1cccc(C(C)(C)O)n1 [AZD1775] + C1CN(CCC1(C(=O)N[C@@H](CCO)C2=CC=C(C=C2)Cl)N)C3=NC=NC4=C3C=CN4 [Capivasertib] (first compound max 3 µM, partner max 3 µM)

>  <answer label>
not met

$$$$
>  <compound>
NC1(C(=O)N[C@@H](CCO)c2ccc(Cl)cc2)CCN(c2ncnc3[nH]ccc23)CC1 [Capivasertib] + CC(=O)c1c(C)c2cnc(Nc3ccc(N4CCNCC4)cn3)nc2n(C2CCCC2)c1=O [Palbociclib] (first compound max 10 µM, 7x7, partner max 10 µM)

>  <answer label>
not met

$$$$
>  <compound>
CN(CCO)CC[C@H](CSc1ccccc1)Nc1ccc(S(=O)(=O)NC(=O)c2ccc(N3CCC([C@@H](O)c4ccccc4-c4ccc(Cl)cc4)CC3)cc2)cc1S(=O)(=O)C(F)(F)F [AZD4320] + C[C@@H]1COCCN1C2=NC(=NC(=C2)C3(CC3)[S@](=N)(=O)C)C4=C5C=CNC5=NC=C4 [AZD6738] (first compound max 1 µM, 7x7, partner max 10 µM)

>  <answer label>
met

$$$$
>  <compound>
C=CCn1c(=O)c2cnc(Nc3ccc(N4CCN(C)CC4)cc3)nc2n1-c1cccc(C(C)(C)O)n1 [AZD1775] + CCc1c2c(nc3ccc(O)cc13)-c1cc3c(c(=O)n1C2)COC(=O)[C@]3(O)CC [SN-38] (first compound max 1 µM, partner max 0.3 µM)

>  <answer label>
met

$$$$
>  <compound>
Cc1c2c(nn1C)CSCc1cc(n(C)n1)CSc1cc(c3ccccc3c1)OCCCc1c(C(=O)O)n(C)c3c-2c(Cl)ccc13 [AZD5991] + C=CCn1c(=O)c2cnc(Nc3ccc(N4CCN(C)CC4)cc3)nc2n1-c1cccc(C(C)(C)O)n1 [AZD1775] (first compound max 1 µM, partner max 1 µM)

>  <answer label>
met

$$$$
>  <compound>
N#Cc1cnc(Nc2cc(NC[C@H]3CNCCO3)c(C(F)(F)F)cn2)cn1 [SRA737] + CCc1c2c(nc3ccc(O)cc13)-c1cc3c(c(=O)n1C2)COC(=O)[C@]3(O)CC [SN-38] (first compound max 10 µM, 7x7, partner max 0.3 µM)

>  <answer label>
met

$$$$
>  <compound>
CC1(C)CCC(CN2CCN(c3ccc(C(=O)NS(=O)(=O)c4ccc(NCC5CCOCC5)c([N+](=O)[O-])c4)c(Oc4cnc5[nH]ccc5c4)c3)CC2)=C(c2ccc(Cl)cc2)C1 [Venetoclax] + CS(=O)(=O)CCNCc1ccc(-c2ccc3ncnc(Nc4ccc(OCc5cccc(F)c5)c(Cl)c4)c3c2)o1 [Lapatinib] (first compound max 1 µM, 7x7, partner max 10 µM)

>  <answer label>
not met

$$$$
>  <compound>
COc1cccc2c1C(=O)c1c(O)c3c(c(O)c1C2=O)C[C@@](O)(C(=O)CO)C[C@@H]3O[C@H]1C[C@H](N)[C@H](O)[C@H](C)O1 [Doxorubicin] + Cc1cc2ncnn2cc1Nc1ncc2c(n1)n(C1CCOCC1)c(=O)n2C [AZD7648] (first compound max 1 µM, 7x7, partner max 10 µM)

>  <answer label>
met

$$$$

## Task Would you say COc1cc2c(cc1OCCCCCOc1cc3c(cc1OC)C(=O)N1C=C(C)C[C@H]1C=N3)N=C[C@@H]1CC(C)=CN1C2=O [SG3199] + O=C(c1cc(Cc2n[nH]c(=O)c3ccccc23)ccc1F)N1CCN(C(=O)C2CC2)CC1 [Olaparib] (first compound max 0.001 µM, 7x7, partner max 10 µM) shows combination Emax at minimum 0.8?
## Result not met

From: the supplement of paper PMC11061612
